Taken from patent US20230365711A1.

Molecular target: T1, human carcinoembryonic antigen (CEA), membrane-bound on cells (human, UniProt P06731 35-685)
T1 construct: whole, on cells; also called CEACAM-5; CD66e
T1 sequence (looked up): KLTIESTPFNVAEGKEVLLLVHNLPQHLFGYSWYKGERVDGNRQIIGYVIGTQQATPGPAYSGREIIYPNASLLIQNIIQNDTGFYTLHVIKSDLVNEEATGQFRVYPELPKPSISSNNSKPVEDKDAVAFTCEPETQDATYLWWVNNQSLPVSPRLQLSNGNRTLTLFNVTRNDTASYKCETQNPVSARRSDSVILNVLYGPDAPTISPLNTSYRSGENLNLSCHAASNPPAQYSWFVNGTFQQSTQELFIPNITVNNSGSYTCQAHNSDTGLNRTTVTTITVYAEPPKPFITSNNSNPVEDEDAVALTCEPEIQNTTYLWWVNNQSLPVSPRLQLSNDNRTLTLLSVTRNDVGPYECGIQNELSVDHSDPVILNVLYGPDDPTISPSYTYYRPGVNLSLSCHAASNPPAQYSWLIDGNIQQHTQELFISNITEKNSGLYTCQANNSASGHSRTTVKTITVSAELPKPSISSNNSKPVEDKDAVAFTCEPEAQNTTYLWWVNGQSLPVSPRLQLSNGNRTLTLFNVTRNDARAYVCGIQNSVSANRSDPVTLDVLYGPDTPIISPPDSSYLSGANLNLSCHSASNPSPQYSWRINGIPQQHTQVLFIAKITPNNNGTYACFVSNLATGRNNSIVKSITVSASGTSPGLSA
Assay: FACS on MKN45 cells
# key: entry, value: EC50 (read off the curve)

>  <Binder>
anti-CEA antibody with heavy chain CH1A1D and light chain 2F1 (antibody, V domains shown) VH: QVQLVQSGAEVKKPGETVKISCKASGYTFTEFGMNWVRQAPGQGLEWMGWINTKTGEATYVEEFKGRVTMTTDTSTSTAYMELRSLRSDDTAVYYCARWDFYDYVEAMDYWGQGTTVTVSS VL: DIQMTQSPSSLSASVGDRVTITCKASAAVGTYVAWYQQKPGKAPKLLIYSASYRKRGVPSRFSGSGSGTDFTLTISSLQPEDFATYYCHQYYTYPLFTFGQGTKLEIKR

>  <EC50 (read off the curve)>
~1 µg/mL

$$$$
>  <Binder>
anti-CEA antibody with heavy chain CH1A1F and light chain 2F1 (antibody, V domains shown) VH: QVQLVQSGAEVKKPGASVKVSCKASGYTFTEFGMNWVRQAPGQGLEWMGWINTKTGEATYVEEFKGRVTMTTDTSTSTAYLELRSLRSDDTAVYYCARWDFYDYVEAMDYWGQGTTVTVSS VL: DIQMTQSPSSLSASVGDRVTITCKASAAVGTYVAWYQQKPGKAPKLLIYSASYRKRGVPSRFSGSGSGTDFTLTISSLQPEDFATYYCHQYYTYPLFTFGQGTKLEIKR

>  <EC50 (read off the curve)>
~1 µg/mL

$$$$
>  <Binder>
anti-CEA antibody with heavy chain CH1A1B and light chain 2F1 (antibody, V domains shown) VH: QVKLQQSGAEVKKPGASVKVSCKASGYTFTEFGMNWVRQAPGQGLEWMGWINTKTGEATYVEEFKGRVTMTTDTSTSTAYMELRSLRSDDTAVYYCARWDFYDYVEAMDYWGQGTTVTVSS VL: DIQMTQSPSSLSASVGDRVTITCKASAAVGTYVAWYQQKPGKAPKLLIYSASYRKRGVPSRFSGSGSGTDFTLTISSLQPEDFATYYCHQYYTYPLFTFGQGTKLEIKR

>  <EC50 (read off the curve)>
~1 µg/mL

$$$$
